Sourced from patent US8841291B2

measured target: Collagenase-3 (MMP-13) (Homo sapiens, UniProt P45452)
protocol: Collagenase-3 (MMP-13) inhibitory activity, fluorogenic peptide substrate assay
Type: biochemical
condition: recombinant pro-collagenase-3 activated with 1 mM APMA; read-out: MMP13 IC50
Could you mark each record yes if its IC50 falls strictly under 40 nM, and no if it equals or exceeds it?

Examples from the recorded data:
>>> answer_label("CC(C)[C@H](C(=O)NO)N(CCOc1cccc(Cl)c1)S(=O)(=O)c1ccc2ccccc2c1")
"no"
>>> answer_label("COc1cccc(OCCN([C@@H](C(=O)NO)C(C)C)S(=O)(=O)c2ccc3ccccc3c2)c1")
"yes"
>>> answer_label("CC(C)[C@H](C(=O)NO)N(CCOc1ccc(F)cc1)S(=O)(=O)c1ccc2ccccc2c1")
"yes"

hey, is IC50 for O=C(NO)[C@H]1CC=CCN1S(=O)(=O)c1ccc2ccccc2c1 lower than 40 nM or not?
yes

Identify whether the compound CC(C)[C@H](C(=O)NO)N(CCOc1ccccc1)S(=O)(=O)c1ccc2ccccc2c1 records IC50 below 40 nM.
yes

# TODO verify IC50 < 40 nM strictly for this compound: O=C(NO)[C@H]1CC=C(c2ccccc2)CN1S(=O)(=O)c1ccc2ccccc2c1
yes

Determine if O=C(NO)[C@H]1C2CCC(CC2)N1S(=O)(=O)c1ccc2ccccc2c1 shows IC50 strictly lower than 40 nM.
no

Problem: For the compound C=CC[C@@H](NS(=O)(=O)c1ccc2ccccc2c1)C(=O)NO , is IC50 under 40 nM?
yes

----------
Collected pIC50 values appear next to each entry.
measured target: Gelatinase (MMP-2) (Homo sapiens)
protocol: Gelatinase (MMP-2) inhibitory activity, fluorogenic peptide substrate assay
Assay type: biochemical
condition: substrate 5 μM, 60 min preincubation, 20-25° C.; read-out: MMP2 IC50
Kindly note that pIC50 refers to -log10 of the concentration in mol/L and answer with the value alone.

Below are worked cases with known answers.
>>> value_observed("CS(=O)(=O)CCC(NS(=O)(=O)c1ccc2ccccc2c1)C(=O)NO (stereo not drawn) [Example 18]")
6.80
>>> value_observed("O=C(NO)[C@H]1CC=CCCN1S(=O)(=O)c1ccc2ccccc2c1 [Example 88]")
7.20
>>> value_observed("O=C(NO)[C@H]1CC=CCN1S(=O)(=O)c1cnc2ccccc2c1 [Example 72]")
6.07

Hi! What's the reported pIC50 for O=C(NO)C1(NS(=O)(=O)c2ccc3ccccc3c2)CCCCC1 [Example 19] on Gelatinase (MMP-2) (Homo sapiens)?
6.35

----------
measured target: Gelatinase (MMP-2) (Homo sapiens)
protocol: Gelatinase (MMP-2) inhibitory activity, fluorogenic peptide substrate assay
Type: biochemical
condition: substrate 5 μM, 60 min preincubation, 20-25° C.; read-out: MMP2 IC50
pIC50: −log10 of the molar value.
pIC50 below 7 gives f; pIC50 at or above it gives t.

Reference set, count: 5
>>> answer_label("C=CCCN([C@H](CC=C)C(=O)NO)S(=O)(=O)c1ccc2ccccc2c1")
"t"
>>> answer_label("CC(C)C[C@@H](NS(=O)(=O)c1ccc2ccccc2c1)C(=O)NO")
"t"
>>> answer_label("CC(=O)N(CCC(C)C)c1ccc2ccc(S(=O)(=O)N(CCC(C)C)[C@@H](C(=O)NO)C(C)C)cc2c1")
"f"
>>> answer_label("CC(C)CCN(C(C)(C)C(=O)NO)S(=O)(=O)c1ccc2ccccc2c1")
"f"
>>> answer_label("CC(C)(C)OC(=O)N1CCC([C@@H](NS(=O)(=O)c2ccc3ccccc3c2)C(=O)NO)CC1")
"t"

Shift focus to the following entry.
Check the entry CCOc1ccc2ccc(S(=O)(=O)N(Cc3ccccc3)[C@@H](C(=O)NO)C(C)C)cc2c1 : does pIC50 equal or exceed 7?
f

----------
measured target: UniProtKB P08253
Sequence (P08253 110-660): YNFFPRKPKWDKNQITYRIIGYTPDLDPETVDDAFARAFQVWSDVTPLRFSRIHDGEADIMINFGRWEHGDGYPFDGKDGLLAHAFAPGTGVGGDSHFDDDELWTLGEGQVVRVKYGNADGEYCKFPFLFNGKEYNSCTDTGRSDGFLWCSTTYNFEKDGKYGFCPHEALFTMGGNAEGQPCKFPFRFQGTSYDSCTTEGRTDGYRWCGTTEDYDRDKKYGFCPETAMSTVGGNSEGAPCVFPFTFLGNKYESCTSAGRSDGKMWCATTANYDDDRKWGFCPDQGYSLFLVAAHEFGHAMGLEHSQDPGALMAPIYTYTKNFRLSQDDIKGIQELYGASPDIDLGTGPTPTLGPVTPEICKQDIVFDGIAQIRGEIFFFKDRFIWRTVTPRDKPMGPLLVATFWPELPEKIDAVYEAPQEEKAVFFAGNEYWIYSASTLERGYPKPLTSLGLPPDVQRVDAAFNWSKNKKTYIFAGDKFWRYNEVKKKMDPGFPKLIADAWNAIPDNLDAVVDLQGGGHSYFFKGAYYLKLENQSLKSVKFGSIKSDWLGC
protocol: Gelatinase (MMP-2) inhibitory activity, fluorogenic peptide substrate assay
Type: biochemical
condition: read-out: IC50 (Gelatinase (MMP-2) inhibitory activity)
quantity kind: IC50 (nM)
Please respond with the number in nM and leave the unit unwritten.

Reported IC50, compound CC(C)CCN([C@@H](C(=O)NO)C(C)C)S(=O)(=O)c1ccc2ccccc2c1Cl : ____
55

----------
measured target: Gelatinase (MMP-2) (Homo sapiens)
protocol: Gelatinase (MMP-2) inhibitory activity, fluorogenic peptide substrate assay
Format: biochemical
condition: substrate 5 μM, 60 min preincubation, 20-25° C.; read-out: MMP2 IC50
Entries and their IC50 values follow.
Just the number in nM, nothing appended.

>>> value_observed("Cc1ccc(C)c(OCCN([C@@H](C(=O)NO)C(C)C)S(=O)(=O)c2ccc3ccccc3c2)c1C [Example 75]")
3110

Turning now to a further record.
Query: IC50; subject: C=CCN([C@@H](C(=O)NO)C(C)C)S(=O)(=O)c1ccc2ccccc2c1 [Example 24]
90.4

----------
measured target: Collagenase-3 (MMP-13) (Homo sapiens)
protocol: Collagenase-3 (MMP-13) inhibitory activity, fluorogenic peptide substrate assay
Type: biochemical
condition: recombinant pro-collagenase-3 activated with 1 mM APMA; read-out: MMP13 IC50
Listing of recorded pIC50 by entry.
Field pIC50 (float): negative decimal logarithm of the concentration in molar.

Examples from the recorded data:
>>> value_observed("CC(C)[C@H](C(=O)NO)N(CCOc1ccc(Cl)cc1)S(=O)(=O)c1ccc2ccccc2c1")
6.94
>>> value_observed("O=C(NO)[C@H]1CCCCN1S(=O)(=O)c1cnc2ccccc2c1")
6.88
>>> value_observed("COc1ccc(S(=O)(=O)N2CC=CC[C@@H]2C(=O)NO)cc1OC")
4.99
>>> value_observed("CCOc1ccc2ccc(S(=O)(=O)N(Cc3cccnc3)[C@@H](C(=O)NO)C(C)C)cc2c1")
7.54

Please give the measured pIC50 for this compound: O=C(NO)[C@H]1CC=CCN1S(=O)(=O)c1ccc2ncccc2c1
7.98

Given the compound CS(=O)(=O)CCC(NS(=O)(=O)c1ccc2ccccc2c1)C(=O)NO (centres unmarked) , what is its reported pIC50?
6.82

Which measured pIC50 value corresponds to Cc1ccc2ccc(S(=O)(=O)N(CCC(C)C)[C@@H](C(=O)NO)C(C)C)cc2c1 ?
6.87

----------
measured target: Collagenase-3 (MMP-13) (Homo sapiens)
protocol: Collagenase-3 (MMP-13) inhibitory activity, fluorogenic peptide substrate assay
Format: biochemical
condition: recombinant pro-collagenase-3 activated with 1 mM APMA; read-out: MMP13 IC50
quantity kind: IC50 (µM)
Give just the numeric value; µM need not be written.

Before answering, review these 3 worked examples.
>>> value_observed("CC(C)[C@H](C(=O)NO)N(CCOc1ccccc1Cl)S(=O)(=O)c1ccc2ccccc2c1")
0.0161
>>> value_observed("C=CCCN([C@H](CC=C)C(=O)NO)S(=O)(=O)c1ccc2ccccc2c1")
0.0007
>>> value_observed("CC(C)(NS(=O)(=O)c1ccc2ccccc2c1)C(=O)NO")
0.761

Would you kindly look at the next entry?
Enter reported IC50 observed with Collagenase-3 (MMP-13) (Homo sapiens) for O=C(NO)[C@H]1[C@@H]2CCCC[C@@H](C2)N1S(=O)(=O)c1ccc2ccccc2c1
0.135

----------
Each entry below lists one item and its recorded IC50 value.
measured target: Collagenase-3 (MMP-13) (Homo sapiens, UniProt P45452)
protocol: Collagenase-3 (MMP-13) inhibitory activity, fluorogenic peptide substrate assay
Type: biochemical
condition: recombinant pro-collagenase-3 activated with 1 mM APMA; read-out: MMP13 IC50
The figure you give is taken to be in nM; do not add the unit.

>>> value_observed("CC(C)CCNc1ccc2ccc(S(=O)(=O)N(CCC(C)C)[C@@H](C(=O)NO)C(C)C)cc2c1")
1580
>>> value_observed("CC(C)(C)OC(=O)N1CCC([C@@H](NS(=O)(=O)c2ccc3ccccc3c2)C(=O)NO)CC1")
0.4

# ---- query molecule ----
What does the record list as IC50 for CC(C)CCN([C@@H](C(=O)NO)C(C)C)S(=O)(=O)c1ccc2cc(N)ccc2c1 ?
90
